Data credit: patent US20040198791A1

# experimentalTarget: human NPY Y5 receptors (Homo sapiens)
# Sequence (Q15761 1-445): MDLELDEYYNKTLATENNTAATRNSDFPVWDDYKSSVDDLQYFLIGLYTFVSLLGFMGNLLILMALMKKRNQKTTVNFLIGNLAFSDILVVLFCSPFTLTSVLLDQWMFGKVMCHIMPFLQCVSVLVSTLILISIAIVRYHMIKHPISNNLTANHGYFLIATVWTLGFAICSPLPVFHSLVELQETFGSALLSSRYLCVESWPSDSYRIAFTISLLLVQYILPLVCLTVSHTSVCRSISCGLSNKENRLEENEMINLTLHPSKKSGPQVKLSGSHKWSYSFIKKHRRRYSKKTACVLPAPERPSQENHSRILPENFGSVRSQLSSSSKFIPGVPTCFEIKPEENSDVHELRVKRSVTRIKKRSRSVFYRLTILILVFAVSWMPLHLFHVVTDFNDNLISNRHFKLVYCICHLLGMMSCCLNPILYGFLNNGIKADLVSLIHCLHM
pIC50: −log10 of the molar value.

- smi: "Clc1ccc2c(c1)-c1[nH]c(-c3ccccc3)nc1CCC2"
  experimentalTarget: "human NPY Y5 receptors (Homo sapiens)"
  pIC50: 8.77
- smi: "Cc1ccc2c(c1)-c1[nH]c(-c3ccncc3)nc1CCC2"
  experimentalTarget: "human NPY Y5 receptors (Homo sapiens)"
  pIC50: 8.19
- smi: "c1cncc(-c2nc3c([nH]2)-c2ccccc2CCC3)c1"
  experimentalTarget: "human NPY Y5 receptors (Homo sapiens)"
  pIC50: 8.14
- smi: "COc1ccc2c(c1)-c1c(nc(-c3ccccc3)n1O)CCC2"
  experimentalTarget: "human NPY Y5 receptors (Homo sapiens)"
  pIC50: 7.62
- smi: "c1ccc2c(c1)CCCc1[nH]c(-c3c[nH]cn3)nc1-2"
  experimentalTarget: "human NPY Y5 receptors (Homo sapiens)"
  pIC50: 6.26
- smi: "Fc1ccc2c(c1)-c1[nH]c(-c3ccccn3)nc1CCC2"
  experimentalTarget: "human NPY Y5 receptors (Homo sapiens)"
  pIC50: 7.34
- smi: "COc1ccc2c(c1)-c1nc(-c3ccccn3)[nH]c1CCC2"
  experimentalTarget: "human NPY Y5 receptors (Homo sapiens)"
  pIC50: 6.92
- smi: "c1ccc2c(c1)CCCc1nc(-c3ccc4c(c3)OCCO4)[nH]c1-2"
  experimentalTarget: "human NPY Y5 receptors (Homo sapiens)"
  pIC50: 6.74
- smi: "c1ccc2c(c1)CCCc1nc(-c3ccncc3)[nH]c1-2"
  experimentalTarget: "human NPY Y5 receptors (Homo sapiens)"
  pIC50: 7.70
- smi: "COc1ccc2c(c1)-c1nc(-c3ccncc3)[nH]c1CCC2"
  experimentalTarget: "human NPY Y5 receptors (Homo sapiens)"
  pIC50: 7.89
